# IC50 listing for each entry below
MEASURED_ON: UniProt P10415
Sequence (P10415 1-211): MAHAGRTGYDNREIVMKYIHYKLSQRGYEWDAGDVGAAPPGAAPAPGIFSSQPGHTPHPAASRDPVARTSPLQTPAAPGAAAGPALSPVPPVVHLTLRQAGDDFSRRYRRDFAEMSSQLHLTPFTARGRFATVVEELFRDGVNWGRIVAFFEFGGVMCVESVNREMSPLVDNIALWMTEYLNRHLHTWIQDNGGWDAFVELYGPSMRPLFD
TEST_NAME: Protein-protein interaction assay BCL-2/Bad BH3 peptide (BCL-2 assay, TR-FRET)
ASSAY_SETUP: read-out: BCL-2 Assay IC50 (median)

Previously resolved entries follow.
COMPOUND	TEST_RESULT
Cc1c2c(nn1C)C(CCN1CCOCC1)OCCCCn1c(C(=O)O)c(CCCOc3cccc4cc(F)ccc34)c3ccc(Cl)c-2c31 (single isomer, unassigned; enantiomer 2) [Example 18]	> 20 µM
Cc1c2c(nn1C)C(CCN1CCOCC1)OCCCCn1c(C(=O)O)c(CCCOc3cccc4ccccc34)c3cccc-2c31 (single isomer, unassigned; stereoisomer 2)	> 20 µM
CCc1c2c(nn1C)C(CCOC)OCCCCn1c(C(=O)O)c(CCCOc3cccc4cc(F)ccc34)c3ccc(Cl)c-2c31 (single isomer, unassigned; enantiomer 2) [Example 43]	19.3 µM
Cc1c2c(nn1C)C(C)OCCCCn1c(C(=O)O)c(CCCOc3cccc4ccccc34)c3cccc-2c31 (single isomer, unassigned; stereoisomer 2) [Example 3]	> 20 µM
Cc1c2c(nn1C)C(C1CC1)OCCCCn1c(C(=O)O)c(CCCOc3cccc4ccccc34)c3ccc(Cl)c-2c31 (single isomer, unassigned; enantiomer 2) [Example 36]	14.6 µM
Cc1c2c(nn1C)C(C1CC1)OCCCCn1c(C(=O)O)c(CCCOc3cccc4ccccc34)c3ccc(Cl)c-2c31 (single isomer, unassigned; enantiomer 1) [Example 35]	> 20 µM
CCc1c2c(nn1C)C(CCO)OCCCCn1c(C(=O)O)c(CCCOc3cccc4cc(F)ccc34)c3ccc(Cl)c-2c31 (racemic) [Example 44]	> 20 µM
CCc1c2c(nn1C)C(CCC1CCOCC1)OCCCCn1c(C(=O)O)c(CCCOc3cccc4cc(F)ccc34)c3ccc(Cl)c-2c31 (single isomer, unassigned; enantiomer 2) [Example 62]	> 20 µM

Look at this compound and give its reported IC50. Cc1c2c(nn1C)C(CCN1CCOCC1)OCCCCn1c(C(=O)O)c(CCCOc3cccc4ccccc34)c3ccc(Cl)c-2c31 (racemic) [Example 13]
> 20 µM

Look at this compound and give its reported IC50. CCc1c2c(nn1C)C(c1ccccc1)OCCCCn1c(C(=O)O)c(CCCOc3cccc4cc(F)ccc34)c3ccc(Cl)c-2c31 (racemic)
13.2 µM

Look at this compound and give its reported IC50. CCc1c2c(nn1C)C(CCN1CCOCC1)OCCCCn1c(C(=O)O)c(CCCOc3cccc4cc(F)ccc34)c3ccc(F)c-2c31 (single isomer, unassigned; enantiomer 1) [Example 50]
> 20 µM

* * *

Test system: SUDHL5 cells
TEST_NAME: Induction of caspase-3/7 activity in SUDHL5 cells (Assay 4)
Format: cell-based
ASSAY_SETUP: Homo sapiens, SU-DHL-5, 3 h, caspase-3/7 induction, 3 h; read-out: Caspase SUDHL5 EC50 (median)
pEC50: −log10 of the molar value.
RECORDED_ENDPOINT: pEC50

COMPOUND	TEST_RESULT
Cc1c2c(nn1C)C(CCN1CCOCC1)OCCCCn1c(C(=O)O)c(CCCOc3cccc4cc(F)ccc34)c3ccc(F)c-2c31 (single isomer, unassigned; enantiomer 2) [Example 21]	4.96

[I] CCc1c2c(nn1C)C(c1ccccc1)OCCCCn1c(C(=O)O)c(CCCOc3cccc4cc(F)ccc34)c3ccc(Cl)c-2c31 (racemic) [Example 59]
[II] CCc1c2c(nn1C)C(CCN(C)OC)OCCCCn1c(C(=O)O)c(CCCOc3cccc4cc(F)ccc34)c3ccc(Cl)c-2c31 (racemic) [Example 80]
[III] CCc1c2c(nn1C)C1CCCCN1CCCCn1c(C(=O)O)c(CCCOc3cccc4ccccc34)c3ccc(Cl)c-2c31 (racemic) [Example 103]
Please put the entries in order of rising pEC50. Would you mind listing the labels in the order asked for?
III, I, II
(III: 5.85, I: 6.37, II: 6.85)
